B1: FBXO39 (parent)
chain: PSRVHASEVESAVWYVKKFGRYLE

variants of: B1; assay: protein stability index of a GFP-peptide fusion (GPS, HEK-293T) (PSI 1-6); higher = more stable; details: c terminus: a fixed tail appended;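 also: lentivirally expressed fusions sorted by FACS into six bins by GFP to DsRed ratio, PSI derived from sequencing read proportions per bin multiplied by bin number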
OBSERVABLE: protein stability index
Give bare numbers.

Recorded protein stability index, per entry:
polymer_sequence="PSRIHASEVESAVWYVKKFGRYLE [V4I]" observable="protein stability index" obs_value=2.39
polymer_sequence="PSRVHASEVESAVWYYKKFGRYLE [V16Y]" observable="protein stability index" obs_value=2.44
polymer_sequence="PSRVHASEVESAVWYSKKFGRYLE [V16S]" observable="protein stability index" obs_value=3.08
polymer_sequence="PSRVHASEVESAGWYVKKFGRYLE [V13G]" observable="protein stability index" obs_value=2.4
polymer_sequence="PSRVHASEVESAVWYVKKFWRYLE [G20W]" observable="protein stability index" obs_value=2.97

Hello, I would appreciate it if you could give protein stability index for each entry below.
1. PLRVHASEVESAVWYVKKFGRYLE [S2L]
2. PSRVHASEVVSAVWYVKKFGRYLE [E10V]
3. PSRVHASEVESAVEYVKKFGRYLE [W14E]
4. PSRVGASEVESAVWYVKKFGRYLE [H5G]

*A*
1. 1.63
2. 1.54
3. 2.8
4. 2.26

Hello, I would appreciate it if you could give protein stability index for each entry below.
1. PSRVHASEVESPVWYVKKFGRYLE [A12P]
2. PMRVHASEVESAVWYVKKFGRYLE [S2M]
3. PSRVHASEVESAVWYVKKFGRYLM [E24M]
4. PSRVHASEVESAVWKVKKFGRYLE [Y15K]
5. PSRVHLSEVESAVWYVKKFGRYLE [A6L]

*A*
2.25
2.08
2.07
2.53
2.24

Hello, I would appreciate it if you could give protein stability index for each entry below.
1. PSRVHASEVMSAVWYVKKFGRYLE [E10M]
2. PSRVHASEVESAVWYVKKFGRTLE [Y22T]

*A*
1. 1.49
2. 2.03
